Data provenance: paper PMC3479139

Test system: HeLa cells
Assay: MMS potentiation assay (CellTiter Glo viability)
Format: cell-based, human
Parameters: key: N.A., no activity observed; P, positive; I, inconclusive; N.T., not tested
Settings: potentiation of the genotoxic effect of methylmethane sulfonate
Measured Property: MMS Assay

For orientation, consider the following solved cases.
>  <Compound>
O=c1oc2c(cc1O)oc(=O)c1cc(O)c(O)c(O)c12 [MLS000737267, galloflavin]

>  <Target Or System>
HeLa cells

>  <MMS Assay>
P

$$$$
>  <Compound>
O=C(O)c1ccccc1-c1ccc(/C=c2\sc3nc4cc(Br)cnc4n3c2=O)o1 [MLS000107874]

>  <Target Or System>
HeLa cells

>  <MMS Assay>
I

$$$$
>  <Compound>
COc1ccc(CN2C(=O)NC(=O)/C(=C\c3ccco3)C2=O)cc1 [MLS000723827]

>  <Target Or System>
HeLa cells

>  <MMS Assay>
I

$$$$
>  <Compound>
CC1CCN(C2=NN3C(=N)/C(=C\c4ccc(OC(=O)c5ccco5)cc4)C(=O)N=C3S2)CC1 [MLS001076862]

>  <Target Or System>
HeLa cells

>  <MMS Assay>
P

$$$$
>  <Compound>
O=C(O)C1Nc2ccc(Br)cc2C2C=CCC12 (centres unmarked) [MLS001209038]

>  <Target Or System>
HeLa cells

>  <MMS Assay>
I

$$$$

Output MMS Assay of O=C(COC(=O)/C=C/c1ccco1)Nc1ncc(Cl)cc1Cl [MLS000391557]
I

Output MMS Assay of O=C(O)c1cccc(-n2cccc2/C=C/[N+](=O)[O-])c1 [MLS000778420]
P

Output MMS Assay of COc1ccc(CCn2c(O)cc3nn(-c4nc5ccccc5s4)c(=O)c-3c2C)cc1 [MLS000763226]
I

Output MMS Assay of O=C1CC(=O)N(Cc2ccco2)C(=S)N1 [MLS000535286]
I

Output MMS Assay of Cc1c(C(=O)OCC2CCCO2)[nH]c2c1C(=O)CC(c1ccco1)C2 (centres unmarked) [MLS000090966]
P

Output MMS Assay of COc1ccc2c(c1)c(=O)oc1cc(OCC(=O)N3CCc4ccccc4C3)ccc12 [MLS000594187]
P
